The origin of these recorded values is PubChem BioAssay.

- Procedure text: optical density change of DRC41 E. coli – strain DRC41, OD650, 24 h, E. coli filamentation project, primary screen (AID 1093);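 further: MC1000 strain lacking acrAB efflux and sulA so SOS filamentation is blocked; test concentration not given here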
- Measurement conditions: E. coli DRC41 growth, higher = more signal, called active from +8 up or from −8 down
# binarize z-score: threshold -0.7 inclusive, high side met, low side not met

                                   compound    group
0  CCCCC=C[C@@H](NC(=O)OCc1ccccc1Cl)c1ccccc1  not met
1  COc1cc(NN2C(C(O)c3ccco3)C=CC3C(=O)N(C)C(=O)C32)cc(OC)c1OC (stereo not given)  not met
2  CCOC(=O)C[C@H]1[C@H](OC(=O)c2ccc(C(=O)c3ccccc3)cc2)[C@@H](NC(=O)c2ccc(-c3ccccc3)cc2)c2cc(OCCCO)ccc2N1C(=O)Cc1ccc(OC)cc1      met
3  CCOC(=O)C[C@H]1[C@H](OC(=O)c2ccc(C(=O)c3ccccc3)cc2)[C@@H](NC(=O)CC(C)C)c2cc(OCCCO)ccc2N1C(=O)c1ccccc1  not met
4  COc1ccccc1CN1C(=O)c2ccccc2[C@](Cc2ccccc2I)(C(=O)O)[C@@H]1c1ccc(CO)cc1      met
